- TARGET OR SYSTEM: GPR43 (Homo sapiens)
- Construct: expressed in transfected cells
- METHOD NOTES: Calcium mobilization assay with probenecid
- Type: cell-based
- CONDITION LABEL: GPR43 stably expressing cells; triggered with sodium acetate at EC80; 2.5 mM probenecid; read-out: GPR43 assay with probenicid IC50
- Protocol: The following assay can be used for determination of GPR43 activation. The assay measures intracellular calcium release induced by activation of GPR43. […] To measure agonist activity of the compounds, compound was added to the well and the Ca^2+-flux was measured simultaneously to the […] of compound.
pIC50: −log10 of the molar value.
Field: pIC50. Provide a value for each of the molecules that follow.

Problem: Query: pIC50; subject: CN(Cc1ccc(Cl)cc1)C(=O)C1(C)CCN1C(=O)Cc1ccccc1I (centres unmarked) [Compound 17]
Result: < 6.00

Problem: Next molecule: CC1(C(=O)N(CCCC(=O)O)Cc2ccc(Cl)cc2)CCN1C(=O)Cc1csc2ccccc12 (centres unmarked) [Compound 89]
Result: 7.00 to 11.00

Problem: Next molecule: CC1(C(=O)N(CCCC(=O)O)Cc2ccc(Cl)cc2)CCN1C(=O)Oc1ccccc1Cl (centres unmarked) [Compound 202]
Result: < 6.00

Problem: Next molecule: CC1(C(=O)N(CCC(=O)O)Cc2ccc3cn[nH]c3c2)CCN1C(=O)Cc1csc2ccccc12 (centres unmarked) [Compound 176]
Result: 6.30 to 7.00

Problem: Next molecule: CN(Cc1ccc(Cl)cc1)C(=O)C1(C)CCN1C(=O)c1ccc2occc2c1 (centres unmarked) [Compound 121]
Result: < 6.00

Problem: Next molecule: CC1(C(=O)N(CCCC(=O)O)Cc2ccc(Cl)cc2)CCN1C(=O)n1ccc2ccccc21 (centres unmarked) [Compound 237]
Result: < 6.00

Problem: Next molecule: Cc1cc(C)cc(CC(=O)N2CCC2(C)C(=O)N(Cc2ccc(Cl)cc2)Cc2nnn[nH]2)c1 (centres unmarked) [Compound 76]
Result: < 6.00

Problem: Next molecule: CCOC(=O)CN(Cc1ccc(Cl)cc1)C(=O)C1(C)CCN1C(=O)Cc1csc2ccccc12 (centres unmarked) [Compound 58]
Result: 6.30 to 7.00

====

- TARGET OR SYSTEM: GPR43 (Homo sapiens)
- Construct: expressed in transfected cells
- METHOD NOTES: [35S]GTPγS binding assay
- Type: biochemical
- CONDITION LABEL: membranes from stable cell line over expressing GPR43; sodium acetate at EC80
Field: IC50. Provide a value for each of the compounds that follow.

Problem: Query: IC50; subject: CC1(C(=O)N(CCCS(N)(=O)=O)Cc2ccc(Cl)cc2)CCN1C(=O)c1csc2ccccc12 (stereo not shown) [Compound 182]
Result: 101 to 500 nM

Problem: Next compound: CC1(C(=O)N(CCC(=O)O)Cc2ccc(Cl)cc2)CCN1C(=O)c1csc2ccccc12 (stereo not shown) [Compound 155]
Result: > 501 nM

Problem: Next compound: CC1(C(=O)N(CCCC(=O)O)c2ccc(Cl)cc2)CCN1C(=O)c1csc2ccccc12 (stereo not shown) [Compound 194]
Result: > 501 nM

Problem: Next compound: C[C@@H](c1ccc(Cl)cc1)N(CCCC(=O)O)C(=O)[C@@]1(C)CCN1C(=O)c1csc2ccccc12 [Compound 198]
Result: 101 to 500 nM

====

Field: pIC50. Provide a value for each of the compounds that follow.
- TARGET OR SYSTEM: GPR43 (Homo sapiens, UniProt O15552)
- Construct: expressed in transfected cells
- Sequence (O15552 1-330): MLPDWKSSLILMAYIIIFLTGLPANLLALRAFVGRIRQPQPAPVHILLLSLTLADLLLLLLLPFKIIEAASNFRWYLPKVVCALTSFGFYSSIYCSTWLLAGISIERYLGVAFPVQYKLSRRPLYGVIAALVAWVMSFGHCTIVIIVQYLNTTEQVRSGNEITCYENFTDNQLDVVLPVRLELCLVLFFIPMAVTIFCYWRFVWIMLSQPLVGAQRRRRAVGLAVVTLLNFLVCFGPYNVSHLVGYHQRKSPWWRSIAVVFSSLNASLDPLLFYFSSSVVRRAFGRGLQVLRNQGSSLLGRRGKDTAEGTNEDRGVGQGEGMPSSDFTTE
- METHOD NOTES: Calcium mobilization assay with probenecid
- Type: cell-based
- CONDITION LABEL: GPR43 stably expressing cells; triggered with sodium acetate at EC80; 2.5 mM probenecid; read-out: GPR43 assay with probenicid IC50
pIC50: −log10 of the molar value.

Problem: What measured pIC50 is associated with Cc1cc(C)cc(CC(=O)N2CCC2(C)C(=O)N(CC(=O)NS(=O)(=O)c2ccccc2)Cc2ccc(Cl)cc2)c1 (stereo not drawn) on GPR43 (Homo sapiens, UniProt O15552)?
Result: 6.00 to 6.30

Problem: Next compound: CCOc1cc(CCN(Cc2ccc(Cl)cc2)C(=O)C2(C)CCN2C(=O)Cc2cc(C)cc(C)c2)n[nH]1 (stereo not drawn)
Result: < 6.00

Problem: Next compound: CC1(C(=O)N(CCCS(N)(=O)=O)Cc2ccc(Cl)cc2)CCN1C(=O)c1csc2ccccc12 (stereo not drawn)
Result: 7.00 to 11.00

Problem: Next compound: C[C@H](c1ccc(Cl)cc1)N(CCCC(=O)O)C(=O)[C@@]1(C)CCN1C(=O)c1csc2ccccc12
Result: 6.00 to 6.30

Problem: Next compound: CN(Cc1ccc(C(F)(F)F)cc1)C(=O)C1(C)CCN1C(=O)Cc1ccc(Cl)cc1Cl (stereo not drawn)
Result: < 6.00

Problem: Next compound: CC1(C(=O)N(CCCC(=O)O)c2cc(Cl)ccn2)CCN1C(=O)c1csc2ccccc12 (stereo not drawn)
Result: 6.00 to 6.30

Problem: Next compound: Cc1cc(C)cc(CC(=O)N2CCC2(C)C(=O)N(CCCC(N)=O)Cc2ccc(Cl)cc2)c1 (stereo not drawn)
Result: 6.30 to 7.00

Problem: Next compound: CC1(C(=O)N(CCCC(=O)O)c2cccc(Cl)c2)CCN1C(=O)c1csc2ccccc12 (stereo not drawn)
Result: 6.30 to 7.00

Problem: Next compound: COc1cccc(CC2(C(=O)N(CCCC(=O)O)Cc3cccc(Cl)c3)CCN2C(=O)c2csc3ccccc23)c1 (stereo not drawn)
Result: 6.30 to 7.00

Problem: Next compound: CC1(C(=O)N(CCCC(=O)O)c2ccc(Cl)cc2)CCN1C(=O)c1csc2ccccc12 (stereo not drawn)
Result: 7.00 to 11.00

Problem: Next compound: CN(Cc1ccc(Cl)cc1)C(=O)C1(C)CCN1C(=O)Cc1ccc(-c2ccc(F)cc2)cc1 (stereo not drawn)
Result: < 6.00

Problem: Next compound: CC1(C(=O)N(CCCC(=O)O)c2ccc(Cl)cn2)CCN1C(=O)c1csc2ccccc12 (stereo not drawn)
Result: 6.00 to 6.30

Problem: Next compound: CCOC(=O)CCCN(Cc1cccc(Cl)c1)C(=O)C1(C)CCN1C(=O)Cc1csc2ccccc12 (stereo not drawn)
Result: 6.00 to 6.30

Problem: Next compound: COc1ccc(OC(=O)N2CCC2(C)C(=O)N(CCCC(=O)O)Cc2ccc(Cl)cc2)c(Cl)c1 (stereo not drawn)
Result: < 6.00

Problem: Next compound: Cc1cc(C)cc(CC(=O)N2CCC2(C)C(=O)N(C)Cc2ccc(C)cc2C)c1 (stereo not drawn)
Result: < 6.00

Problem: Next compound: CCOC(=O)CCCN(Cc1ccc(Cl)cc1)C(=O)C1(C)CCN1C(=O)Cc1csc2ccccc12 (stereo not drawn)
Result: 6.00 to 6.30

Problem: Next compound: CC1(C(=O)N(CC(=O)O)Cc2cccc(Cl)c2)CCN1C(=O)Cc1csc2ccccc12 (stereo not drawn)
Result: 6.00 to 6.30

Problem: Next compound: CC1(C(=O)N(CCCC(N)=O)Cc2ccc(Cl)cc2)CCN1C(=O)c1csc2ccccc12 (stereo not drawn)
Result: 6.30 to 7.00

Problem: Next compound: COc1ccc(-c2ccc(CC(=O)N3CCC3(C)C(=O)N(C)Cc3ccc(Cl)cc3)cc2)cc1 (stereo not drawn)
Result: < 6.00

Problem: Next compound: CN(Cc1ccc(Cl)cc1)C(=O)C1(C)CCN1C(=O)c1ccc2ccccc2c1 (stereo not drawn)
Result: < 6.00

Problem: Next compound: CC1(C(=O)N(CC#N)Cc2ccc(Cl)cc2)CCN1C(=O)Cc1csc2ccccc12 (stereo not drawn)
Result: 6.30 to 7.00

Problem: Next compound: COc1ccc(CNS(=O)(=O)CCCN(Cc2ccc(Cl)cc2)C(=O)C2(C)CCN2C(=O)Cc2cc(C)cc(C)c2)c(OC)c1 (stereo not drawn)
Result: < 6.00

Problem: Next compound: Cc1cc(C)cc(CC(=O)N2CCC2(C)C(=O)N(CCc2nnn[nH]2)Cc2ccc(Cl)cc2)c1 (stereo not drawn)
Result: 6.30 to 7.00

Problem: Next compound: Cc1ccc(CN(C)C(=O)C2(C)CCN2C(=O)Cc2cc(C)cc(C)c2)cc1 (stereo not drawn)
Result: < 6.00

Problem: Next compound: CCC1(C(=O)N(CCCC(=O)NS(C)(=O)=O)Cc2cccc(Cl)c2)CCN1C(=O)c1csc2ccccc12 (stereo not drawn)
Result: 7.00 to 11.00

Problem: Next compound: Cc1cc(C)cc(CC(=O)N2CCC2(C)C(=O)N(Cc2ccc(Cl)cc2)Cc2cc(O)no2)c1 (stereo not drawn)
Result: 7.00 to 11.00

Problem: Next compound: Cc1cc(C)cc(CC(=O)N2CCC2(C)C(=O)N(CCC(N)=O)Cc2ccc(Cl)cc2)c1 (stereo not drawn)
Result: 6.00 to 6.30

Problem: Next compound: CC1(C(=O)N(CCCC(=O)O)Cc2ccc3cn[nH]c3c2)CCN1C(=O)Cc1csc2ccccc12 (stereo not drawn)
Result: 7.00 to 11.00

Problem: Next compound: Cc1cc(C)cc(CC(=O)N2CCC2(C)C(=O)N(CCS(=O)(=O)N2CCOCC2)Cc2ccc(Cl)cc2)c1 (stereo not drawn)
Result: < 6.00

Problem: Next compound: Cc1cc(C)cc(CC(=O)N2CCC2(C)C(=O)N(CC(=O)O)Cc2cccc(C)c2)c1 (stereo not drawn)
Result: < 6.00
